# Test system: Staphylococcus aureus
# TEST DESCRIPTION: Bactericidal activity against methicillin-sensitive Staphylococcus aureus 8325-4
# Type: functional
# MBC values compiled below
ASSAY METRIC: MBC (µg/mL)

INSERT INTO assay_data (smiles_record, test_target, assay_metric, scale_unit, result_number) VALUES
  ('CC(C)(C)c1cccc(-c2cnc3c(CNC(=N)N)cccc3n2)c1', 'Staphylococcus aureus', 'MBC', 'µg/mL', 4),
  ('CC(C)(C)c1ccc(-c2ccnc3c(CNC(=N)N)ccnc23)cc1', 'Staphylococcus aureus', 'MBC', 'µg/mL', 8),
  ('CC(C)(C)c1ccc(-c2ncnc3c(CNC(=N)N)cccc23)cc1', 'Staphylococcus aureus', 'MBC', 'µg/mL', 8),
  ('C[n+]1cc(-c2cccc(-c3ccccc3)c2)nc2ccccc21.[I-]', 'Staphylococcus aureus', 'MBC', 'µg/mL', 4);

* * *

# System: Staphylococcus aureus
# TEST DESCRIPTION: Bactericidal activity against methicillin-resistant Staphylococcus aureus ATCC 33591
# Format: functional
# MBC values compiled below
ASSAY METRIC: MBC (µg/mL)

INSERT INTO measurements (smiles_record, test_target, scale_unit, result_number) VALUES
  ('CC(C)(C)c1ccc(-c2ncnc3c(CNC(=N)N)cccc23)cc1', 'Staphylococcus aureus', 'µg/mL', 16),
  ('C[n+]1cc(-c2ccc(C(C)(C)C)cc2)nc2ccccc21.[I-]', 'Staphylococcus aureus', 'µg/mL', 16),
  ('C[n+]1cc(-c2cccc(C(C)(C)C)c2)nc2ccccc21.[I-]', 'Staphylococcus aureus', 'µg/mL', 16),
  ('C[n+]1cc(-c2cccc(-c3ccccc3)c2)nc2ccccc21.[I-]', 'Staphylococcus aureus', 'µg/mL', 4),
  ('CN[C@H](CC(C)C)C(=O)N[C@H]1C(=O)N[C@@H](CC(N)=O)C(=O)N[C@H]2C(=O)N[C@H]3C(=O)N[C@H](C(=O)N[C@H](C(=O)O)c4cc(O)cc(O)c4-c4cc3ccc4O)[C@H](O)c3ccc(c(Cl)c3)Oc3cc2cc(c3O[C@@H]2O[C@H](CO)[C@@H](O)[C@H](O)[C@H]2O[C@H]2C[C@](C)(N)[C@H](O)[C@H](C)O2)Oc2ccc(cc2Cl)[C@H]1O', 'Staphylococcus aureus', 'µg/mL', 4),
  ('CC(C)(C)c1ccc(-c2cnc3c(CNC(=N)N)cccc3n2)cc1', 'Staphylococcus aureus', 'µg/mL', 8),
  ('CC(C)(C)c1ccc(-c2ccnc3c(CNC(=N)N)ccnc23)cc1', 'Staphylococcus aureus', 'µg/mL', 16),
  ('CC(C)(C)c1cccc(-c2cnc3c(CNC(=N)N)cccc3n2)c1', 'Staphylococcus aureus', 'µg/mL', 8);

* * *

# System: Enterococcus faecalis
# TEST DESCRIPTION: microbe, parasite or virus in culture
# Type: functional
# EXPERIMENTAL CONTEXT: ATCC 19433
# Description: Antimicrobial activity against vancomycin-sensitive Enterococcus faecalis ATCC 19433 by broth microdilution method
# MIC values compiled below
ASSAY METRIC: MIC (µg/mL)

INSERT INTO assay_data (smiles_record, test_target, value_relation_sign, result_number) VALUES
  ('CC(C)(C)c1ccc(-c2cc(C(N)=O)cc(-c3cnc4ccccc4n3)c2)cc1', 'Enterococcus faecalis', '>', 64),
  ('C[n+]1cc(-c2cccc(-c3ccccc3)c2)nc2ccccc21.[I-]', 'Enterococcus faecalis', '=', 8),
  ('COC(=O)c1cc(-c2ccc(C(C)(C)C)cc2)cc(-c2c[n+](C)c3ccccc3n2)c1.[I-]', 'Enterococcus faecalis', '=', 4),
  ('C[n+]1cc(-c2cccc(C(C)(C)C)c2)nc2ccccc21.[I-]', 'Enterococcus faecalis', '=', 8),
  ('CC(C)(C)c1ccc(-c2cc(C(=O)NCCO)cc(-c3cnc4ccccc4n3)c2)cc1', 'Enterococcus faecalis', '>', 64),
  ('CC(C)(C)c1cccc(-c2cnc3c(CNC(=N)N)cccc3n2)c1', 'Enterococcus faecalis', '=', 8),
  ('CC(C)(C)c1ccc(-c2cccc3c(CNC(=N)N)ncnc23)cc1', 'Enterococcus faecalis', '>', 64),
  ('c1ccc(-c2cnc3ccccc3n2)cc1', 'Enterococcus faecalis', '>', 64),
  ('CC(C)(C)c1ccc(-c2ccnc3c(CN)ccnc23)cc1', 'Enterococcus faecalis', '>', 64),
  ('CC(C)(C)c1ccc(-c2cc(C(=O)NCCN)cc(-c3cnc4ccccc4n3)c2)cc1', 'Enterococcus faecalis', '=', 8);

* * *

# TEST TARGET: Cell division protein FtsZ (Staphylococcus aureus) (UniProt P0A031)
# Sequence (P0A031 whole entry): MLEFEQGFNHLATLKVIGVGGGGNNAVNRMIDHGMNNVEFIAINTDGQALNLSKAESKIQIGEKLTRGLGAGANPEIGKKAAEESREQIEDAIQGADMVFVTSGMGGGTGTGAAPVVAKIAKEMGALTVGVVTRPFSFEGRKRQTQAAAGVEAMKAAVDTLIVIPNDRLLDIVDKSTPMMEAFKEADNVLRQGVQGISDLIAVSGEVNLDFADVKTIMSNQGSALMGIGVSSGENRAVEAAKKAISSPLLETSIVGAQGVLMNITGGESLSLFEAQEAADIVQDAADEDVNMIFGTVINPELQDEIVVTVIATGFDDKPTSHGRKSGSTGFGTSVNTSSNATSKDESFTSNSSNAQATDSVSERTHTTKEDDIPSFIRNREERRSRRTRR
# TEST DESCRIPTION: Stimulation of purified Staphylococcus aureus FtsZ polymerization at 40 ug/ml by microtiter plate based light-scattering assay
Activity calls are given as the source filed them. No cut-off for these calls is given here.
ASSAY METRIC: Activity

INSERT INTO assay_data (smiles_record, test_target, result) VALUES
  ('CC(C)(C)c1cccc(-c2cnc3c(CNC(=N)N)cccc3n2)c1', 'Cell division protein FtsZ (Staphylococcus aureus) (UniProt P0A031)', 'Active'),
  ('CC(C)(C)c1ccc(-c2cnc3c(CNC(=N)N)cccc3n2)cc1', 'Cell division protein FtsZ (Staphylococcus aureus) (UniProt P0A031)', 'Active'),
  ('C[n+]1cc(-c2cccc(-c3ccccc3)c2)nc2ccccc21.[I-]', 'Cell division protein FtsZ (Staphylococcus aureus) (UniProt P0A031)', 'inactive'),
  ('C[n+]1cc(-c2cccc(C(C)(C)C)c2)nc2ccccc21.[I-]', 'Cell division protein FtsZ (Staphylococcus aureus) (UniProt P0A031)', 'inactive');

* * *

# Test system: Enterococcus faecalis
# TEST DESCRIPTION: Bactericidal activity against vancomycin-resistant Enterococcus faecalis ATCC 51575
# Type: functional
ASSAY METRIC: MBC (µg/mL)

INSERT INTO results (smiles_record, scale_unit, result_number) VALUES
  ('C[n+]1cc(-c2cccc(-c3ccccc3)c2)nc2ccccc21.[I-]', 'µg/mL', 64),
  ('CC(C)(C)c1cccc(-c2cnc3c(CNC(=N)N)cccc3n2)c1', 'µg/mL', 32),
  ('CC(C)(C)c1ccc(-c2cnc3c(CNC(=N)N)cccc3n2)cc1', 'µg/mL', 16),
  ('C[n+]1cc(-c2cccc(C(C)(C)C)c2)nc2ccccc21.[I-]', 'µg/mL', 64),
  ('C[n+]1cc(-c2ccc(C(C)(C)C)cc2)nc2ccccc21.[I-]', 'µg/mL', 64),
  ('CC(C)(C)c1ccc(-c2ncnc3c(CNC(=N)N)cccc23)cc1', 'µg/mL', 64),
  ('CC(C)(C)c1ccc(-c2ccnc3c(CNC(=N)N)ccnc23)cc1', 'µg/mL', 64);

* * *

# Test system: Enterococcus faecalis
# TEST DESCRIPTION: microbe, parasite or virus in culture
# Assay type: functional
# EXPERIMENTAL CONTEXT: ATCC 19433
# MIC values compiled below
ASSAY METRIC: MIC (µg/mL)

INSERT INTO measurements (compound, test_target, assay_metric, scale_unit, value_relation_sign, result_number) VALUES
  ('COC(=O)c1cc(-c2ccc(C(C)(C)C)cc2)cc(-c2cnc3ccccc3n2)c1', 'Enterococcus faecalis', 'MIC', 'µg/mL', '>', 64),
  ('CC(C)(C)c1ccc(-c2cnc3c(CNC(=N)N)cccc3n2)cc1', 'Enterococcus faecalis', 'MIC', 'µg/mL', '=', 8),
  ('c1ccc2nccnc2c1 [QUINOXALINE]', 'Enterococcus faecalis', 'MIC', 'µg/mL', '>', 64),
  ('C[n+]1cc(-c2cc(C(=O)NCCO)cc(-c3ccc(C(C)(C)C)cc3)c2)nc2ccccc21.[I-]', 'Enterococcus faecalis', 'MIC', 'µg/mL', '=', 8),
  ('C[n+]1cc(-c2ccccc2)nc2ccccc21.[I-]', 'Enterococcus faecalis', 'MIC', 'µg/mL', '=', 32);

* * *

# MIC values compiled below
# Tested on: Staphylococcus aureus
# TEST DESCRIPTION: microbe, parasite or virus in culture
# Assay type: functional
# EXPERIMENTAL CONTEXT: ATCC 33591
# Description: Antimicrobial activity against methicillin-resistant Staphylococcus aureus ATCC 33591 by broth microdilution method
ASSAY METRIC: MIC (µg/mL)

INSERT INTO measurements (compound, value_relation_sign, result_number) VALUES
  ('CC(C)(C)c1ccc(-c2cccc3c(CNC(=N)N)ncnc23)cc1', '=', 64),
  ('CC(C)(C)c1ccc(-c2cc(C(=O)NCCN)cc(-c3cnc4ccccc4n3)c2)cc1', '=', 4),
  ('CCC[C@@H]1C[C@@H](C(=O)N[C@@H]([C@H]2O[C@H](SC)[C@H](O)[C@@H](O)[C@H]2O)[C@H](C)Cl)N(C)C1 [CLINDAMYCIN]', '>', 64),
  ('C[n+]1cc(-c2cc(C(=O)NCCO)cc(-c3ccc(C(C)(C)C)cc3)c2)nc2ccccc21.[I-]', '=', 4),
  ('C[n+]1cc(-c2cccc(F)c2)nc2ccccc21.[I-]', '=', 4),
  ('CC(C)(C)c1ccc(-c2cc(C(N)=O)cc(-c3cnc4ccccc4n3)c2)cc1', '>', 64),
  ('Fc1cccc(-c2cnc3ccccc3n2)c1', '>', 64),
  ('CC(C)(C)c1ccc(-c2ccnc3c(CNC(=N)N)ccnc23)cc1', '=', 8),
  ('CC(C)(C)c1ccc(-c2ncnc3c(CNC(=N)N)cccc23)cc1', '=', 8),
  ('CC[C@H]1OC(=O)[C@H](C)[C@@H](O[C@H]2C[C@@](C)(OC)[C@@H](O)[C@H](C)O2)[C@H](C)[C@@H](O[C@@H]2O[C@H](C)C[C@H](N(C)C)[C@H]2O)[C@](C)(O)C[C@@H](C)C(=O)[C@H](C)[C@@H](O)[C@]1(C)O [ERYTHROMYCIN]', '>', 64),
  ('C[n+]1cc(-c2cccc(-c3ccccc3)c2)nc2ccccc21.[I-]', '=', 0.5),
  ('c1ccc(-c2cccc(-c3cnc4ccccc4n3)c2)cc1', '>', 64),
  ('CC(C)(C)c1ccc(-c2cnc3ccccc3n2)cc1', '>', 64),
  ('C[n+]1cc(-c2cccc(C(C)(C)C)c2)nc2ccccc21.[I-]', '=', 2),
  ('C[n+]1ccnc2ccccc21.[I-]', '>', 64),
  ('Cc1onc(-c2ccccc2)c1C(=O)N[C@@H]1C(=O)N2[C@@H]1SC(C)(C)[C@@H]2C(=O)O [OXACILLIN]', '>', 64),
  ('C[n+]1cc(-c2ccccc2)nc2ccccc21.[I-]', '=', 8),
  ('c1ccc(-c2cnc3ccccc3n2)cc1', '>', 64),
  ('CN(C)[C@@H]1C(O)=C(C(N)=O)C(=O)[C@@]2(O)C(O)=C3C(=O)c4c(O)cccc4[C@@](C)(O)[C@H]3C[C@@H]12 [TETRACYCLINE]', '=', 64);
